Recorded LD50 at 24 h values for a group of compounds are listed next.
- Assay comment: acute toxicity (LD50 table, level of toxicity)
- Details: in vivo, po; route of administration: or(al)

Some solved cases for reference:
INSERT INTO results (smiles_text, endpoint_result) VALUES
  ('CC(=NOCC(N)=O)c1ccc(Cl)c(Cl)c1', '~1000 mg/kg'),
  ('CC(=NOCC(=O)O)c1ccc(Cl)cc1', '> 1000 mg/kg'),
  ('CC(=NOCC(N)=O)c1ccc(Cl)cc1', '> 1000 mg/kg'),
  ('COC(=O)CON=C(C)c1ccc(Cl)cc1', '> 1000 mg/kg'),
  ('CC(=NOCC(=O)N(C)C)c1ccc(Cl)cc1', '> 1000 mg/kg'),
  ('CC(=NOCCC(N)=O)c1ccc(Cl)cc1', '> 1000 mg/kg'),
  ('CCCCCCCCOC(=O)CON=C(C)c1ccc(Cl)cc1', '> 1000 mg/kg'),
  ('CC(=NOCC(=O)OC(C)C)c1ccc(Cl)cc1', '> 1000 mg/kg');

**Query** Entry CNC(=O)CON=C(C)c1ccc(Cl)cc1 : reported LD50 at 24 h = ?
**Result** > 1000 mg/kg

**Query** Entry CC(=NOCC(=O)NN)c1ccc(Cl)cc1 : reported LD50 at 24 h = ?
**Result** ~1000 mg/kg

**Query** Entry CC(=NOCC(=O)OCc1ccccc1)c1ccc(Cl)cc1 : reported LD50 at 24 h = ?
**Result** > 1000 mg/kg
